# assayComment: Pharmacokinetic study of 157 (and metabolite endothal) in SD rats, iv and po; plasma, liver, brain
# Assay type: in vivo
# setupConditions: female, SD, rat, in vivo, iv, 1.5 mg/kg, 157 iv 1.5 mg/kg; read-out: T1/2 of 157 in liver (converted)
measuredEndpoint: half-life (min)
State the answer as a number, implicitly in min.

// query half-life value for entry CCCCCCCOC(=O)C1C2CCC(O2)C1C(=O)N1CCN(C)CC1 (stereo not shown)
48.8

----------
# assayComment: Pharmacokinetic study of 100 (and metabolite endothal) in SD rats, iv; plasma, liver, brain
# setupConditions: female, SD, rat, in vivo, iv, 1.5 mg/kg, Endothal liver concentration, 100 iv 1.5 mg/kg, SD rats, 6 hr, individual
measuredEndpoint: concentration at 6 h (ng/g)
State the answer as a number, implicitly in ng/g.

// query concentration at 6 h value for entry O=C(O)C1C2CCC(O2)C1C(=O)O (stereo not shown) [Endothal]
1690

----------
# assayComment: in vivo
# setupConditions: male, Sprague-Dawley (SD), rat, in vivo, iv, 1 mg/kg, Plasma Concentration of 100
measuredEndpoint: concentration at 0.083 h (ng/mL)
State the answer as a number, implicitly in ng/mL.

// query concentration at 0.083 h value for entry CN1CCN(C(=O)C2C3CCC(O3)C2C(=O)O)CC1 (stereo not shown) [Compound 100]
646

----------
# assayComment: in vivo
# Design: species or system SD rats
# setupConditions: male, Sprague-Dawley, rat, po, 1.4 mg/kg, AUClast of 113 in plasma
measuredEndpoint: AUC(0-t) (ng·h/mL)
State the answer as a number, implicitly in ng·h/mL.

// query AUC(0-t) value for entry CN1CCN(C(=O)C2C(C(=O)OCC(Cl)(Cl)Cl)[C@H]3CC[C@@H]2O3)CC1 (stereo partly shown) [Compound 113]
15.7

----------
# assayComment: Pharmacokinetic study of 153 (and metabolite endothal) in SD rats, iv and po; plasma, liver, brain
# Assay type: in vivo
# setupConditions: female, SD, rat, in vivo, iv, 1.25 mg/kg, iv 1.25 mg/kg, 1 hr, Rat 2; read-out: 153 brain concentration
# Description: The blood, liver and brain tissue samples were collected at predetermined times from rats. […] Compound were diluted shortly before use in 4% sodium bicarbonate for sterile injection (this is the standard pediatric solution of NaHCO3 with a pH of about 8.5). Compound 153 was freshly prepared by diluting the drugs shortly before use in 4% sodium bicarbonate for sterile injection (this is the standard pediatric solution of NaHCO3 with a pH of about 8.5). […]
measuredEndpoint: concentration at 1 h
A complete answer gives the number and then names the unit.

// query concentration at 1 h value for entry CCCOC(=O)C1C2CCC(O2)C1C(=O)N1CCN(C)CC1 (stereo not shown) [Compound 153]
14.3 ng/g

----------
# assayComment: in vivo
# setupConditions: female, Sprague-Dawley, rat, in vivo, iv, 1.5 mg/kg, T1/2 of 100 in plasma
measuredEndpoint: half-life

// query half-life value for entry CN1CCN(C(=O)C2C3CCC(O3)C2C(=O)O)CC1 (stereo not shown)
0.31 to 2.2 h

----------
# assayComment: in vivo
# setupConditions: male, Sprague-Dawley, rat, in vivo, iv, 1 mg/kg, AUC0-∞ of 100
measuredEndpoint: AUC(0-inf) (µg·h/mL)
State the answer as a number, implicitly in µg·h/mL.

// query AUC(0-inf) value for entry CN1CCN(C(=O)C2C3CCC(O3)C2C(=O)O)CC1 (stereo not shown) [Compound 100]
0.694
